targetEntity: Wistar rat heart PBR (Rattus norvegicus, UniProt P16257)
Sequence (P16257 whole entry): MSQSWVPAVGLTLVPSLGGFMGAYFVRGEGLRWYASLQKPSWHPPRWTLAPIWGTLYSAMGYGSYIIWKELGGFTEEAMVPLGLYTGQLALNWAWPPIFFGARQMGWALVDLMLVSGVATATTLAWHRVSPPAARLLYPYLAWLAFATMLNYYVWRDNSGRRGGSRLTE
pKi: −log10 of the molar value.
Label rule, in plain words: pKi of 9 and up is t, under 9 is f.

The following compounds have reported results that may help.
O=C(C[18F])N(Cc1cccc2c1OCO2)c1ccccc1Oc1ccccc1: f
O=C(C[18F])N(Cc1cccc2c1OCC2)c1ccccc1Oc1ccccc1: t
CC1(C)Cc2cccc(CN(C(=O)C[18F])c3ccccc3Oc3ccccc3)c2O1: f

Consider the additional compound presented here.
Prompt: Confirm if pKi reported for the compound COc1ccc(OC)c(CN(C(=O)C[18F])c2ccccc2Oc2ccccc2)c1 [PBR06, reference compound] is 9 or above.
Response: t
